Tested on: BHK-pD2hRucPac cells
experiment.summary: Cell viability (CellTiter-Glo) in replicon assay
condition.details: read-out: Replicon Assay_CC50_M; Table 2-1
# key: entry, value: CC50
# unit: µM | format: bare number

Cc1cccc(N2C(=O)/C(=C/c3ccc(C(=O)O)cc3)SC2=S)c1C [BG128]
42
CC(C)(C)c1ccc(CC2SC(=S)N(CCC(=O)O)C2=O)cc1 (racemic) [BG296]
105

Return the recorded CC50 value; entry: Cc1cc(C)cc(-n2c(C)cc(/C=C3\SC(=O)NC3=O)c2C)c1 [BG172]
26

Return the recorded CC50 value; entry: COc1ccccc1C=C1SC(=S)N(CCC(=O)O)C1=O [BG-310]
100

Return the recorded CC50 value; entry: C=CCOc1ccc(Cl)cc1/C=C1\SC(=S)NC1=O [BG114]
27
